Cited source for all entries: patent US5411933A

We begin with a simple list: items and their reported MIC (TSB media) Ecol.
- System: Escherichia coli
- runDescription: minimum inhibitory concentration, broth two-fold serial dilution test, Escherichia coli
- Format: cell-based, Escherichia coli ATCC 11229
- conditionDescription: Escherichia coli ATCC 11229, lowest concentration with complete inhibition of growth
measuredQuantity: MIC (TSB media) Ecol (ppm)

compound	testTarget	resultModifier	reportedMeasurement
CCCCCCCCCCCCCCCC[N+]1(CC#CBr)CCOCC1 [Compound 13]	Escherichia coli	>	500
CCCCCCCCCCCCCC[N+]1(CC#CBr)CCCCC1C (centres unmarked) [Compound 16]	Escherichia coli	=	8
CCCCCCCCCCCCCC[N+]1(CC#CBr)CCOCC1 [Compound 4]	Escherichia coli	=	32
CCCCCCCCCCCCCC[N+]1(CC#CBr)CCCCC1C (centres unmarked) [Compound 15]	Escherichia coli	=	5
CCCCCCCCCCCCCC[N+]1(CC#CBr)CCOCC1 [Compound 7]	Escherichia coli	=	16

----------
Heads up, these compounds all have MIC values measured for Escherichia coli.
measuredQuantity: MIC (mg/L)

compound	resultModifier	reportedMeasurement
CCCCCCCCCCCC[N+]1(CC#CBr)CCOCC1	=	63
CCCCCCCC[N+](C)(CC#CBr)CCCCCCCC	=	32
CCCCCCCC[N+](C)(C)CC#CBr	=	16
CCCCCC[N+](CC#CBr)(CCCCCC)CCCCCC	=	125
CCCCCCCCCCCC[N+](CC#CBr)(CCCCCCCCCCCC)CCCCCCCCCCCC	=	500
CCCCCCCCCCCCCC[N+]1(CC#CI)CCCCC1 [Compound 33, reference compound]	=	4
CCCCCCCCCCCCCC[N+]1(CC#CBr)CCCCC1C (stereo not shown)	<	4
CCCCCCCCCCCCC[N+]1(CC#CBr)CCOCC1	=	32
CCCCCC[N+](CC#CI)(CCCCCC)CCCCCC [Compound 31, reference compound]	=	63
CCCCCCCCCCCCCC[N+]1(CC#CBr)CCCC1	=	8
CCCCCCCCCCCCCC[N+]1(CC#CI)CCOCC1 [Compound 32, reference compound]	=	8
CCCCCCCC[N+](CC#CI)(CCCCCCCC)CCCCCCCC [Compound 34, reference compound]	>	500
CCCCCCCC[N+](CC#CBr)(CCCCCCCC)CCCCCCCC	<	4

----------
- System: Escherichia coli
- runDescription: minimum inhibitory concentration, broth two-fold serial dilution test, Escherichia coli
- Assay type: cell-based, Escherichia coli ATCC 11229
- conditionDescription: Escherichia coli ATCC 11229, lowest concentration with complete inhibition of growth
We begin with a simple list: items and their reported MIC (TSB media) Ecol.

molecule	MIC (TSB media) Ecol
CCCCCCCCCCCCCC[N+]1(CC#CBr)CCCC1 [Compound 8]	< 4 ppm
CCCCCCCCCCCCCCCC[N+]1(CC#CBr)CCOCC1 [Compound 11]	16 ppm
CCCCCCCC[N+](CC#CBr)(CCCCCCCC)CCCCCCCC	< 4 ppm
CCCCCCCCCCCCCC[N+]1(CC#CBr)CCOCC1 [Compound 2]	8 ppm
CCCCCCCCCCCCCC[N+]1(CC#CBr)CCOCC1 [Compound 3]	8 ppm

----------
We begin with a simple list: items and their reported MIC (TSB media) Ecol.
- Tested on: Escherichia coli
- runDescription: minimum inhibitory concentration, broth two-fold serial dilution test, Escherichia coli
- Format: cell-based, Escherichia coli ATCC 11229
- conditionDescription: Escherichia coli ATCC 11229, lowest concentration with complete inhibition of growth
- Description: Bactericidal and fungicidal evaluations of the compounds of Example 5 were carried out. […] When the test is ready to be done, each vessel in the dilution series, except the first vessel, contains an equal volume of compound free broth. […]

molecule	testTarget	resultModifier	MIC (TSB media) Ecol (ppm)
CCCCCC[N+](CC#CBr)(CCCCCC)CCCCCC	Escherichia coli	=	250
CCCCCCCCCCCCCC[N+]1(CC#CBr)CCOCC1 [Compound 9]	Escherichia coli	=	8
CCCCCCCCCCCCCC[N+]1(CC#CBr)CCCC1 [Compound 5]	Escherichia coli	=	8
CCCCCCCCCCCCCC[N+]1(CC#CBr)CCCCC1 [Compound 17]	Escherichia coli	<	4
CCCCCCCCCCCCCC[N+]1(CC#CBr)CCCCC1 [Compound 6]	Escherichia coli	>	500
